Test system: Klebsiella pneumoniae
Assay: Antibacterial activity tested against Klebsiella pneumoniae (Klebsiella pneumoniae) ATCC 10031
Assay type: functional
For each record, write down the corresponding MIC.
Answers are plain numbers, in µg/mL.

1. Cc1c(N2CCCC(CO)C2)c(N)cc2c(=O)c(C(=O)O)cn(C3CC3)c12 (centres undefined); 0.016
2. CN1CCN(c2cc3c(cc2N)c(=O)c(C(=O)O)cn3C2CC2)CC1; 0.03
3. Cc1c(N2CC3CCC2CC3)c(N)cc2c(=O)c(C(=O)O)cn(C3CC3)c12; 0.03

For the 5 compounds below, give their MIC values.
1. CC1CN(c2cc3c(cc2N)c(=O)c(C(=O)O)cn3C2CC2)CC(C)(C)N1 (centres undefined)
2. Cc1c(N2CCC2)c(N)cc2c(=O)c(C(=O)O)cn(C3CC3)c12
3. Cc1c(N2C[C@@H](C)O[C@@H](C)C2)c(N)cc2c(=O)c(C(=O)O)cn(C3CC3)c12
4. Cc1c(N2CC=CCC2)c(N)cc2c(=O)c(C(=O)O)cn(C3CC3)c12
5. Cc1c(N2CCN(C)CC2)c(N)cc2c(=O)c(C(=O)O)cn(-c3ccc(F)cc3)c12

Output:
[0.03, 0.25, 0.08, 1, 1]

Go through the list and state MIC for each entry.
1. CN1CCN(c2c(N)cc3c(=O)c(C(=O)O)cn(C4CC4)c3c2F)CC1
2. Cc1c(N2CCCC2)c(N)cc2c(=O)c(C(=O)O)cn(C3CC3)c12
3. Cc1c(N2CCc3ccccc3C2)c(N)cc2c(=O)c(C(=O)O)cn(C3CC3)c12

Output:
1: 0.06; 2: 0.5; 3: 0.06

Hi! Can you tell me MIC for each of these compounds?
1. Cc1c(N2CCCC(C)(C)C2)c(N)cc2c(=O)c(C(=O)O)cn(C3CC3)c12
2. Cc1c(N2CCNC(C)C2)c(N)cc2c(=O)c(C(=O)O)cn(C3CC3)c12 (centres undefined)
3. Nc1cc2c(=O)c(C(=O)O)cn(C3CC3)c2cc1N1CCCC1

Output:
0.5
0.03
0.25

----------
I'd appreciate it if you could supply MIC values for the items below.
Tested on: Staphylococcus aureus
Assay: Antibacterial activity against Staphylococcus aureus ATCC 6538
Assay type: functional
Give bare numbers, in µg/mL.

1. Cc1c(N2CCCC(C)C2)c(N)cc2c(=O)c(C(=O)O)cn(C3CC3)c12 (stereo unspecified); 0.03
2. Cc1c(N2C[C@@H](C)O[C@@H](C)C2)c(N)cc2c(=O)c(C(=O)O)cn(C3CC3)c12; 0.03
3. Cc1c(N2CCCCCC2)c(N)cc2c(=O)c(C(=O)O)cn(C3CC3)c12; 0.125
4. Cc1c(N2CCN(C)CC2)c(N)cc2c(=O)c(C(=O)O)cn(-c3ccc(O)cc3)c12; 16
5. Cc1c(N2CCCC(CO)C2)c(N)cc2c(=O)c(C(=O)O)cn(C3CC3)c12 (stereo unspecified); 0.125
6. Cc1c(N2CCCCC2)c([N+](=O)[O-])cc2c(=O)c(C(=O)O)cn(C3CC3)c12; 32

Please report MIC for every entry that follows.
1. Nc1cc2c(=O)c(C(=O)O)cn(C3CC3)c2cc1N1CCCC1
2. Cc1c(N2CCNCC2)c(N)cc2c(=O)c(C(=O)O)cn(C3CC3)c12

Output:
[128, 2]

Consider the following items and state reported MIC for each.
1. Cc1c(N2CCC(C)CC2)c([N+](=O)[O-])cc2c(=O)c(C(=O)O)cn(C3CC3)c12
2. CC1CN(c2cc3c(cc2N)c(=O)c(C(=O)O)cn3C2CC2)CC(C)(C)N1 (stereo unspecified)

Output:
[32, 8]

Please look at the items below and tell me MIC for each one, in order.
1. Cc1c(N2CCCCC2)c(F)cc2c(=O)c(C(=O)O)cn(C3CC3)c12
2. CN1CCN(c2cc3c(cc2N)c(=O)c(C(=O)O)cn3-c2ccc(F)cc2)CC1
3. Cc1c(N2CCC2)c(N)cc2c(=O)c(C(=O)O)cn(C3CC3)c12

Output:
0.03
8
8

Batch request: MIC per item, same order as input.
1. Cc1c(N2CCOCC2)c(N)cc2c(=O)c(C(=O)O)cn(C3CC3)c12
2. Cc1c(N2CCN(C)CC2)c(N)cc2c(=O)c(C(=O)O)cn(-c3ccc(F)cc3)c12
3. Cc1c(N2CCCC(C)(C)C2)c(N)cc2c(=O)c(C(=O)O)cn(C3CC3)c12

Output:
[0.125, 64, 0.5]

----------
System: Shigella
Assay: Antibacterial activity tested against Shigella enteritidis
Type: functional
experimentalReadout: MIC (µg/mL)
One number for each entry, in µg/mL.

1. Cc1c(N2CCc3ccccc3C2)c([N+](=O)[O-])cc2c(=O)c(C(=O)O)cn(C3CC3)c12; 64
2. Cc1c(N2CCC(C)CC2)c(N)cc2c(=O)c(C(=O)O)cn(C3CC3)c12; 0.5
3. Cc1c(N2CCC(C)CC2)c(N(C)C)cc2c(=O)c(C(=O)O)cn(C3CC3)c12; 64
4. Cc1c(N2CCCC2)c(N)cc2c(=O)c(C(=O)O)cn(C3CC3)c12; 64

Let's switch to this compound now.
What the record says about Cc1c(N2CC(C)OC(C)C2)c(N)cc2c(=O)c(C(=O)O)cn(C3CC3)c12 (stereo not given) : MIC is 1

----------
Could you please report measured MIC for the items listed next?
Tested on: Staphylococcus aureus
Experiment: Antibacterial activity against Staphylococcus aureus MPR 5
Assay type: functional
One number for each entry, in mg/L.

1. Nc1cc2c(=O)c(C(=O)O)cn(C3CC3)c2cc1N1CCCC1; 128
2. Cc1c(N2CCCCC2)c(F)cc2c(=O)c(C(=O)O)cn(C3CC3)c12; 0.03
3. Cc1c(N2CC(C)CC(C)C2)c(N)cc2c(=O)c(C(=O)O)cn(C3CC3)c12 (centres undefined); 0.03
4. Cc1c(N2CCCCC2)c(N)cc2c(=O)c(C(=O)O)cn(C3CC3)c12; 0.06

// input: 4 molecules below; output: MIC for each
1. Cc1c(N2CCCC(CO)C2)c(N)cc2c(=O)c(C(=O)O)cn(C3CC3)c12 (centres undefined)
2. Cc1c(N2CCCC(C)C2)c(N)cc2c(=O)c(C(=O)O)cn(C3CC3)c12 (centres undefined)
3. Cc1c(N2CCOCC2)c(N)cc2c(=O)c(C(=O)O)cn(C3CC3)c12
4. Nc1cc2c(=O)c(C(=O)O)cn(C3CC3)c2cc1N1CCc2ccccc2C1

Output:
0.125
0.06
0.125
4

Take each entry in turn and give its MIC.
1. Cc1c(N2CCC(O)CC2)c(N)cc2c(=O)c(C(=O)O)cn(C3CC3)c12
2. Cc1c(N2CCNCC2)c(N)cc2c(=O)c(C(=O)O)cn(C3CC3)c12
3. Cc1c(N2CC(C)NC(C)C2)c(N)cc2c(=O)c(C(=O)O)cn(C3CC3)c12 (centres undefined)
4. CN1CCN(c2cc3c(cc2N)c(=O)c(C(=O)O)cn3C2CC2)CC1
5. Cc1c(N2CCN(C)CC2)c(N)cc2c(=O)c(C(=O)O)cn(-c3ccc(O)cc3)c12
6. Cc1c(N2CCN(C)CC2)c(F)cc2c(=O)c(C(=O)O)cn(C3CC3)c12
7. Cc1c(N2CCc3ccccc3C2)c(F)cc2c(=O)c(C(=O)O)cn(C3CC3)c12
8. Cc1c(N2CCc3ccccc3C2)c(N)cc2c(=O)c(C(=O)O)cn(C3CC3)c12

Output:
0.125
4
1
2
16
0.03
0.03
0.008

----------
Kindly supply the reported MIC values for the records listed here.
Test system: Staphylococcus aureus
Experiment: Antibacterial activity against Staphylococcus aureus ATCC 6538
Format: functional
Answers are plain numbers, in µg/mL.

Worked examples, 2 molecules total:
1. CC1CN(c2cc3c(cc2N)c(=O)c(C(=O)O)cn3C2CC2)CCS1 (centres undefined); 0.5
2. Cc1c(N2CCN(C)CC2)c([N+](=O)[O-])cc2c(=O)c(C(=O)O)cn(C3CC3)c12; 4

Parameters: items (list). Returns: MIC for each item.
1. Cc1c(N2CC(C)NC(C)C2)c(N)cc2c(=O)c(C(=O)O)cn(C3CC3)c12 (centres undefined)
2. Cc1c(N2CC(C)OC(C)C2)c(N)cc2c(=O)c(C(=O)O)cn(C3CC3)c12 (centres undefined)

Output:
1: 1; 2: 0.06

----------
Test system: Shigella
Assay: Antibacterial activity tested against Shigella enteritidis
Format: functional
experimentalReadout: MIC (µg/mL)
One number for each entry, in µg/mL.

Solved cases (5 shown):
1) Cc1c(N2CCSCC2)c(N)cc2c(=O)c(C(=O)O)cn(C3CC3)c12; 0.125
2) Cc1c(N2CC(C)NC(C)C2)c(N)cc2c(=O)c(C(=O)O)cn(C3CC3)c12 (stereo not given); 0.25
3) CNc1cc2c(=O)c(C(=O)O)cn(C3CC3)c2c(C)c1N1CCC(C)CC1; 64
4) Cc1c(N2CCN(C)CC2)c(F)cc2c(=O)c(C(=O)O)cn(C3CC3)c12; 0.03
5) CC1CN(c2cc3c(cc2N)c(=O)c(C(=O)O)cn3C2CC2)CCN1 (stereo not given); 0.25

# batch size: 8; output MIC per entry
1. Cc1c(N2CCCCCC2)c(N)cc2c(=O)c(C(=O)O)cn(C3CC3)c12
2. Nc1cc2c(=O)c(C(=O)O)cn(C3CC3)c2cc1N1CCc2ccccc2C1
3. Cc1c(N2CC3CCC2CC3)c(N)cc2c(=O)c(C(=O)O)cn(C3CC3)c12
4. Cc1c(N2CCCC(C)C2)c(N)cc2c(=O)c(C(=O)O)cn(C3CC3)c12 (stereo not given)
5. CN1CCN(c2c(N)cc3c(=O)c(C(=O)O)cn(C4CC4)c3c2F)CC1
6. Cc1c(N2CCNCC2)c(N)cc2c(=O)c(C(=O)O)cn(C3CC3)c12
7. Cc1c(N2CCc3ccccc3C2)c(N)cc2c(=O)c(C(=O)O)cn(C3CC3)c12
8. CC1CN(c2cc3c(cc2N)c(=O)c(C(=O)O)cn3C2CC2)CC(C)(C)N1 (stereo not given)

Output:
1: 1; 2: 128; 3: 3; 4: 1; 5: 0.25; 6: 0.03; 7: 0.25; 8: 0.25

MIC reading for `Cc1c(N2CCCCC2)c(N)cc2c(=O)c(C(=O)O)cn(C3CC3)c12` : 0.25
